test: Pharmacokinetics of CBP501, single agent study; format: in vivo, human; settings: human, in vivo, […]2, single agent, […]^2, Day 1, mean, N 3
Where a name gives a salt, the structure may show the parent alone. Square brackets hold non-standard residues; d marks the D form. Peptide text beside a SMILES is read from it. dPhe(F5) = N[C@H](Cc1c(F)c(F)c(F)c(F)c1F)C(=O)O; dBpa = N[C@H](Cc1ccc(C(=O)c2ccccc2)cc1)C(=O)O; dCha = N[C@H](CC1CCCCC1)C(=O)O

[
  {
    "COMPOUND": "N=C(N)NCCC[C@@H](NC(=O)[C@@H](CCCNC(=N)N)NC(=O)[C@@H](CCC(N)=O)NC(=O)[C@@H](CCCNC(=N)N)NC(=O)[C@@H](CCCNC(=N)N)NC(=O)[C@@H](CCCNC(=N)N)NC(=O)[C@@H](CC1CCCCC1)NC(=O)[C@@H](Cc1c(F)c(F)c(F)c(F)c1F)NC(=O)[C@@H](CO)NC(=O)[C@@H](Cc1c[nH]c2ccccc12)NC(=O)[C@@H](CO)NC(=O)[C@H](N)Cc1ccc(C(=O)c2ccccc2)cc1)C(=O)O [CBP501, acetate salt] (H-[dBpa][dS][dW][dS][dPhe(F5)][dCha][dR][dR][dR][dQ][dR][dR]-OH)",
    "clearance": "0.917 mL/min/kg"
  }
]
